Test: Suppression of anxiety (punished licking, conflict test) in the adult male rat
Assay type: in vivo, male rats
Conditions: Table 1, ip, minimum effective dose, >10 = active dose not determined, read-out: Conflict (ip) MED
List of minimal effective dose values.
RESULT_TYPE: minimal effective dose

>>> meas_value("COc1ccc2c(c1)NC1=C(C(=O)Nc3ccncc3)C(=O)CCN12 [compound 57]")
"> 10 mg/kg"
>>> meas_value("O=C1CCN2C(=C1C(=O)Nc1ccc(C(=O)O)cc1)Nc1ccccc12 [compound 28]")
"10 mg/kg"
>>> meas_value("O=C1CCN2C(=C1C(=O)Nc1cccc(F)c1)Nc1ccccc12 [compound 95]")
"> 10 mg/kg"
>>> meas_value("O=C1CCN2C(=C1C(=O)Nc1cccc(C(F)(F)F)c1)Nc1ccccc12 [compound 15]")
"> 10 mg/kg"
>>> meas_value("O=C1CCN2C(=C1C(=O)Nc1ncncn1)Nc1ccccc12 [compound 53]")
"> 10 mg/kg"
>>> meas_value("CN(C)CCc1ccc(NC(=O)C2=C3Nc4ccccc4N3CCC2=O)cc1 [compound 115]")
"30 mg/kg"
>>> meas_value("O=C1CCN2C(=C1C(=O)Nc1ccccc1Cl)Nc1ccccc12 [compound 25]")
"10 mg/kg"
>>> meas_value("O=C1CCN2C(=C1C(=O)Nc1ccncc1)Nc1cc(Cl)ccc12 [compound 82]")
"> 10 mg/kg"
>>> meas_value("O=C1CCN2C(=C1C(=O)Nc1cnccn1)Nc1ccccc12 [compound 63]")
"> 10 mg/kg"

Attribution: patent US6218384A
